Value source: ChEMBL document CHEMBL3392968

measured-on: Histone deacetylase (Rattus norvegicus) (UniProt Q6P6W3+Q99P99+Q99P96+Q4QQW4+Q99P97+Q5RJZ2+B1WBY8)
protocol-text: Inhibition of HDAC in rat C6 cells assessed as increase in histone H3 acetylation at 5 uM after 6 hrs by flow cytometry (reference value: 4.5%)
Assay type: cell-based
Design: scale not given: the % may be the effect or the level left
Activity calls are given as the source filed them. The rule behind the calls is not given here.
measured-quantity: Activity

Some compounds with recorded Activity:
# compound, Activity
measured = [
    ("O=C(O)CCCc1ccccc1", "14%"),
    ("O=C(CCCc1ccccc1)O[C@H](CCCN1CCC(O)(c2ccc(Cl)cc2)CC1)c1ccc(F)cc1", "16.1%"),
    ("OC(CCCN1CCC(O)(c2ccc(Cl)cc2)CC1)c1ccc(F)cc1 (racemic) [HYDROXYHALOPERIDOL]", "inactive"),
    ("O=C(CCCc1ccccc1)O[C@@H](CCCN1CCC(O)(c2ccc(Cl)cc2)CC1)c1ccc(F)cc1", "inactive"),
]

Okay, now this compound:
get_value(item= O=C(CCCc1ccccc1)OC(CCCN1CCC(O)(c2ccc(Cl)cc2)CC1)c1ccc(F)cc1 (racemic) , readout=Activity) returns 14%
